Would you mind telling me the reported log2 ratio of Biotin-Ahx-Ub-VS probe labelling of each entry?
# study_target: UniProt P51784
# Sequence (P51784 whole entry, the tested form may be a part): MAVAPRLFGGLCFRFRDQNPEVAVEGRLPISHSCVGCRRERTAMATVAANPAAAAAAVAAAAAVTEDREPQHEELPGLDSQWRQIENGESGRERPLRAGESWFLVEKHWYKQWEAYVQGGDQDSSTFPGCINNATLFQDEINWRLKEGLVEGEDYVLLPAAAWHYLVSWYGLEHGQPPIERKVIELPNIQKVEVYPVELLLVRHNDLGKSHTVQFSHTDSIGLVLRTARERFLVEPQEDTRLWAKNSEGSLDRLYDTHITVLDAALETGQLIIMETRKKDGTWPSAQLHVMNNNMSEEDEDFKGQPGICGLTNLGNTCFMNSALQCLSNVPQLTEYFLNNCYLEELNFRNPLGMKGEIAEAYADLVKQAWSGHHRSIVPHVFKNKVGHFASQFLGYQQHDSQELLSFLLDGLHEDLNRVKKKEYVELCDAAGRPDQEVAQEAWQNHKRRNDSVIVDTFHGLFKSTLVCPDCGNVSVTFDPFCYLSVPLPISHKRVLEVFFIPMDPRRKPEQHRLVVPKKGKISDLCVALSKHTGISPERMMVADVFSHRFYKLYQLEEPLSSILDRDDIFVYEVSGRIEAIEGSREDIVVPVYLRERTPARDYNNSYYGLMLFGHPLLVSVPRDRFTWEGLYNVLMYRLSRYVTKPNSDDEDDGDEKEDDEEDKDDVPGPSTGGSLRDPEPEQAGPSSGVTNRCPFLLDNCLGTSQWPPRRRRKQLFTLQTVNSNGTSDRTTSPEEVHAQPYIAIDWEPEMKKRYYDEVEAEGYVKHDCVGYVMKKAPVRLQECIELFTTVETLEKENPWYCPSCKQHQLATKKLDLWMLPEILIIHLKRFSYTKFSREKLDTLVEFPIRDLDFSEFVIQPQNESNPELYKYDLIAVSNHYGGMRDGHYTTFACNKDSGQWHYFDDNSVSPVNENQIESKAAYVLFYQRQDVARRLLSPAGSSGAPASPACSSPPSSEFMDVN
# experiment: log2 ratio of Biotin-Ahx-Ub-VS probe labelling (fragment/DMSO); higher = less target engagement (more negative = stronger competition), active = hit call of the paper (q ≤ 0.05, log2 ratio ≤ -1)
# conditions_used: compound concentration: 200 uM; treatment time: 3 h
Give bare numbers.

{"compound": "O=C(CCl)Nc1cccc2ncccc12", "result_number": 0.265}

Quick one: give me log2 ratio of Biotin-Ahx-Ub-VS probe labelling for each item below, same order please.
1. O=C(CCl)N(C1=CCCCC1)C1CC1
2. O=C(CCl)NCc1cccc(N2CCCC2=O)c1
3. Cc1cc(CC(C)NC(=O)CCl)n[nH]1 (stereo not drawn)
4. Cc1ccn2cc(CNC(=O)CCl)nc2c1.Cl
5. O=C(CCl)N1CCC(OCc2ccccc2F)CC1
6. CN(C)C(=O)c1ccc(CNC(=O)CCl)cc1
7. Cl.O=C(CCl)N1CCn2ncc(O)c2C1
8. Cc1ccc(CC(NC(=O)CCl)c2ccccn2)cc1.Cl (stereo not drawn)

Marked response:
1. -0.0543
2. 0.0359
3. -0.131
4. -0.0387
5. 0.146
6. 0.0173
7. -0.0869
8. 0.188

Give log2 ratio of Biotin-Ahx-Ub-VS probe labelling for all compounds that follow.
1. Cc1ccccc1C1(CNC(=O)CCl)CCOCC1
2. Cc1cccc(NC(=O)[C@@H]2CCCN2C(=O)CCl)n1
3. O=C(CCl)N1CCC(C(O)c2ccc(F)cc2)CC1 (stereo not drawn)
4. O=C(CCl)N1CCN(C(=O)N2CCCCC2)CC1

Marked response:
1. 0.00427
2. -0.00908
3. 0.5
4. -0.772

---

# study_target: USP54 (UniProt Q70EL1)
# Sequence (Q70EL1 whole entry, the tested form may be a part): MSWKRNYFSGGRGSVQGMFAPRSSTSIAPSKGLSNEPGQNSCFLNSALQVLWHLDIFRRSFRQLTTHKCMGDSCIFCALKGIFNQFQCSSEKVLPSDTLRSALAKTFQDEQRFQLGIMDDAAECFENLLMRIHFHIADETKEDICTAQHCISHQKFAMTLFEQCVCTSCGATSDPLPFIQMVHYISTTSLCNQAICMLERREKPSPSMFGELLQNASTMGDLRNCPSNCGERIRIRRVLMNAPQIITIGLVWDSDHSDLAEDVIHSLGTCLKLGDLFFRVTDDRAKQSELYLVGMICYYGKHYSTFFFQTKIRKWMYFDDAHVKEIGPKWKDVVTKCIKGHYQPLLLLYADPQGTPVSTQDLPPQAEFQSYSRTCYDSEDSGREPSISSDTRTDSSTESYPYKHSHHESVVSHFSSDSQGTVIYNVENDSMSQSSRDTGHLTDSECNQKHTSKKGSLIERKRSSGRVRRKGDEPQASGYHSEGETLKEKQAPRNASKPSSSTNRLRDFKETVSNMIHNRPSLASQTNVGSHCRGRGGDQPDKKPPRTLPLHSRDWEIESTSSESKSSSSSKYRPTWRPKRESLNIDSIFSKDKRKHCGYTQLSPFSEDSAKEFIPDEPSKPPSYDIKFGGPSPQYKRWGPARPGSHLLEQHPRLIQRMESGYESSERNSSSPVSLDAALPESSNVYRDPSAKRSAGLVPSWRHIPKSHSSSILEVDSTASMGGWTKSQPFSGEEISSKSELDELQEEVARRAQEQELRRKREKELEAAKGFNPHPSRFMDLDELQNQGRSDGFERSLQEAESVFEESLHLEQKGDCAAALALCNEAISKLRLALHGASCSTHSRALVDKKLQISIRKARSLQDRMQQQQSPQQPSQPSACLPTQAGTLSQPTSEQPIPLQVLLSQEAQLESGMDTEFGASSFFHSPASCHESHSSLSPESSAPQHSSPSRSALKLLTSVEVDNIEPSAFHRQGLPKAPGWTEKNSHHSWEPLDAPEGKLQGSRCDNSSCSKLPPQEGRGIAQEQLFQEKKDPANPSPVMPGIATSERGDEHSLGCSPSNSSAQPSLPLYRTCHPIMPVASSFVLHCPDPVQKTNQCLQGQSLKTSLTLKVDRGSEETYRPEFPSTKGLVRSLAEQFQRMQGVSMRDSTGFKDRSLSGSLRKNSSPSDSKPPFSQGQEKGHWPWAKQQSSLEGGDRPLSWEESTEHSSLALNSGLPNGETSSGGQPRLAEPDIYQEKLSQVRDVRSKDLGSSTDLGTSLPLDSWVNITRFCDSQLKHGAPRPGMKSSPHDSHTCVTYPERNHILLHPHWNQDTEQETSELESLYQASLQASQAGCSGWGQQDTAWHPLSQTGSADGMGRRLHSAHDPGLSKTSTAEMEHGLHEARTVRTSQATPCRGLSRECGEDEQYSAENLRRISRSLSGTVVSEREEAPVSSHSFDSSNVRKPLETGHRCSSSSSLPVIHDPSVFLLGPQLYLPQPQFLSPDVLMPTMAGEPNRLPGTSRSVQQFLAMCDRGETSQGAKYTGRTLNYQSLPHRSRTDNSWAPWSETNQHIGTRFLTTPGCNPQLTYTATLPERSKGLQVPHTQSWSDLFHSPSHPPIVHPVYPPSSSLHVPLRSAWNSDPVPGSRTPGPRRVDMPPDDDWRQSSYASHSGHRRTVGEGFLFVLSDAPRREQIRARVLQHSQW
# experiment: log2 ratio of Biotin-Ahx-Ub-VS probe labelling (fragment/DMSO); higher = less target engagement (more negative = stronger competition), active = hit call of the paper (q ≤ 0.05, log2 ratio ≤ -1)
# conditions_used: compound concentration: 200 uM; treatment time: 3 h
I'd be grateful if you could share measured log2 ratio of Biotin-Ahx-Ub-VS probe labelling for these entries.
One number for each entry.

Worked cases, answers included:
{"molecule": "Cc1nc(CNC(=O)CCl)c2ccccn12.Cl", "result_number": -0.0547}
{"molecule": "N#Cc1ccc(Cl)cc1NC(=O)CCl", "result_number": -0.514}
{"molecule": "O=C(CCl)NCc1ccc2c(c1)OCO2", "result_number": 0.581}
{"molecule": "O=C(CCl)N1CC2(CCOCC2)C1", "result_number": 0.355}
{"molecule": "O=C(CCl)NC(Cn1ccccc1=O)c1ccccc1 (stereo unspecified)", "result_number": 0.317}

API: the following record is the query input.
Exam item: Requested read-out: log2 ratio of Biotin-Ahx-Ub-VS probe labelling. Entry: Cc1nc(CN2CCCN(C(=O)CCl)CC2)no1.Cl
Marked response: -0.482

---

# study_target: UCHL1 (UniProt P09936)
# Sequence (P09936 whole entry, looked up, the tested form may be a part): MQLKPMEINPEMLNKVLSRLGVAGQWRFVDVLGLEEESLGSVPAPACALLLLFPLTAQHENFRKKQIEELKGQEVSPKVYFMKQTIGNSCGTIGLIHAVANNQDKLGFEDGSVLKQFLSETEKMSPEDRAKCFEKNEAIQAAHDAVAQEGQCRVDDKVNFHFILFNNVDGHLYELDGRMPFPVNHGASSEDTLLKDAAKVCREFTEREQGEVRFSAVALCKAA
# experiment: log2 ratio of Biotin-Ahx-Ub-VS probe labelling (fragment/DMSO); higher = less target engagement (more negative = stronger competition), active = hit call of the paper (q ≤ 0.05, log2 ratio ≤ -1)
# conditions_used: compound concentration: 200 uM; treatment time: 3 h
quantity: log2 ratio of Biotin-Ahx-Ub-VS probe labelling
Answers are plain numbers.

Record excerpt, results attached:
{"smiles_input": "O=C(CCl)Nc1cc(Cl)ccc1-n1cncn1", "result_number": -1.89}
{"smiles_input": "O=C(CCl)Nc1ccc(F)cc1F", "result_number": -1.47}
{"smiles_input": "C/C(=C\\CNC(=O)CCl)c1cnn(C)c1.Cl", "result_number": -1.27}
{"smiles_input": "O=C(CCl)Nc1ccc(N2CCCC2=O)cc1", "result_number": -1.1}
{"smiles_input": "Cc1cc(NC(=O)CCl)n(-c2ccccc2)n1", "result_number": -1.18}
{"smiles_input": "Cc1cccnc1NC(=O)C1CCN(C(=O)CCl)CC1.Cl", "result_number": -1.33}

We next turn to a different compound, shown below.
Exam item: Given the compound O=C(CCl)N(Cc1ccsc1)C1CC1 , what is its reported log2 ratio of Biotin-Ahx-Ub-VS probe labelling?
Marked response: -0.773
